# credit: ChEMBL document CHEMBL1156212

assayed.target: 17-beta-hydroxysteroid dehydrogenase type 3 (Homo sapiens)
assay.procedure: Inhibition of 17beta-HSD3 in human testis microsomes at 100 uM
Calls of active or inactive are those of the source. No cut-off for these calls is given here.
endpoint: inhibition

O=C1/C(=C/c2ccc(F)cc2)CCC/C1=C\c1ccc(F)cc1; inactive
COc1cc(/C=C/C(=O)/C=C/c2ccc(OC3CCCOC3)c(OC)c2)ccc1OC1CCCOC1 (stereo not drawn); 20%
COc1cc(/C=C2\CCC/C(=C\c3ccc(OC4CCCOC4)c(OC)c3)C2=O)ccc1OC1CCCOC1 (stereo not drawn); inactive

* * *

assayed.target: 17-beta-hydroxysteroid dehydrogenase type 3 (Rattus norvegicus)
Sequence (whole entry): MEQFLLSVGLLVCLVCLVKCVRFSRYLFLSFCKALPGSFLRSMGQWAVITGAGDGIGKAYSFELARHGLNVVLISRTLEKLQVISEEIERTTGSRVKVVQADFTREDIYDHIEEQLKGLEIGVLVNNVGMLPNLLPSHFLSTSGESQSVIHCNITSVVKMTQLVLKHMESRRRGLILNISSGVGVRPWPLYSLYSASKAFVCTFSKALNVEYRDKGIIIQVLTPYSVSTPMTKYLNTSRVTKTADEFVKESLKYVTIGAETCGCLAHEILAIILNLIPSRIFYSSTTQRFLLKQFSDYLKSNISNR
assay.procedure: Inhibition of 17beta-HSD3 in Sprague-Dawley rat laydig cells at 100 uM
Active and inactive are the calls of the source. No cut-off for these calls is given here.
endpoint: inhibition

O=C1/C(=C/c2cccc(C(F)(F)F)c2F)CC/C1=C\c1cccc(C(F)(F)F)c1F; inactive
COc1cc(/C=C2\CCC/C(=C\c3ccc(OC4CCCOC4)c(OC)c3)C2=O)ccc1OC1CCCOC1 (stereo unspecified); 26%
O=C1/C(=C/c2ccc(OC3CCCOC3)cc2)CCC/C1=C\c1ccc(OC2CCCOC2)cc1 (stereo unspecified); 16%
O=C1/C(=C/c2cccc(Br)c2)CC/C1=C\c1cccc(Br)c1; 30%
CN(C)c1ccc(/C=C2\CC/C(=C\c3ccc(N(C)C)cc3)C2=O)cc1; inactive

Request: Give its inhibition value. Item: `O=C1/C(=C/c2ccc(O)cc2)CC/C1=C\c1ccc(O)cc1`
Result: 18%

Request: Give its inhibition value. Item: `O=C1/C(=C/c2cccc(Br)c2)CCC/C1=C\c1cccc(Br)c1`
Result: 25%

Request: Give its inhibition value. Item: COc1cc(/C=C/C(=O)/C=C/c2ccc(OC3CCCOC3)c(OC)c2)ccc1OC1CCCOC1 (stereo unspecified)
Result: inactive

Request: Give its inhibition value. Item: `CN(C)c1ccc(/C=C/C(=O)/C=C/c2ccc(N(C)C)cc2)cc1`
Result: inactive

Request: Give its inhibition value. Item: `O=C1/C(=C/c2ccc(O)cc2)CCC/C1=C\c1ccc(O)cc1`
Result: 13%

Request: Give its inhibition value. Item: COc1cc(/C=C2\CC/C(=C\c3ccc(OC4CCCOC4)c(OC)c3)C2=O)ccc1OC1CCCOC1 (stereo unspecified)
Result: inactive
